The reader will find reported growth inhibition values listed item by item below.
- experimentDescription: NCI Yeast Anticancer Drug Screen. Data for the mec2-1 strain (AID 157)
- recordedConditions: S. cerevisiae mec2-1 strain, at 50.0 µM, hits give high values
The panel holds about 79,000 compounds, 15% with a hit somewhere; the sample as a whole holds those more often.
readoutType: growth inhibition (%)

>>> valuemeasured("Cc1cc(/C=C\\[N+](=O)[O-])c(C)c2c1oc1ccccc12")
-2.55
>>> valuemeasured("O=C(CCl)NC(=O)NC1=C(Cl)C(=O)c2ccccc2C1=O")
98.6
>>> valuemeasured("Cc1ccc(NS(=O)(=O)c2ccc(F)cc2)c(C)c1")
19.1
>>> valuemeasured("CCCCCCCCCCCC(=O)OC(C)CO (stereo not drawn)")
-10.9
>>> valuemeasured("CCCCCN(CCCCC)C(=O)C(C)Br (stereo not drawn)")
-12.9
>>> valuemeasured("C=CCOC1OC(CS(=O)(=O)O)C(OC(C)=O)C(OC(C)=O)C1OC(C)=O (stereo not drawn)")
4.2
>>> valuemeasured("COC(=O)c1nc2nnc(N)n2c(-c2ccc(Cl)cc2)c1C")
11.1
>>> valuemeasured("COc1c2c(c(Cc3c4c(c(OC)c5c3OCO5)OC(C)C4)c3c1OCO3)CC(C)O2 (stereo not drawn)")
2.35
>>> valuemeasured("NS(=O)(=O)c1ccc(NC(=O)c2cccc3c(=O)c4ccccc4[nH]c23)cc1")
-1.95
>>> valuemeasured("Cn1cnc2ncnc(Nc3ccc(Cl)cc3)c21")
-16
>>> valuemeasured("CN(C)c1ccc(C=C2C(=O)OC(C)(C)OC2=O)cc1Br")
-13.8
>>> valuemeasured("c1ccc(Cc2ccc3ccccc3c2)cc1")
14.6
>>> valuemeasured("CC1(C)OC2COC3(COC(C)(C)O3)C(O)C2O1 (stereo not drawn)")
0.2
>>> valuemeasured("C#CCN(N=O)C(=O)NC(CCCCNC(=O)OCc1ccccc1)C(=O)OCc1ccccc1 (stereo not drawn)")
-25.4
>>> valuemeasured("CC1(C)OC(C)(C)c2c1nnc(-c1ccccc1[N+](=O)[O-])[n+]2[O-]")
11.5
>>> valuemeasured("Clc1cnc2ccccc2c1")
6
>>> valuemeasured("Cc1cc(N(CCC#N)CCC#N)ccc1/C=C1\\N=C(c2cc([N+](=O)[O-])ccc2Cl)N(c2cccc(Cl)c2)C1=O")
-20.2
>>> valuemeasured("Cc1ccccc1C(c1ccccc1)C(CO)CO (stereo not drawn)")
0.15
>>> valuemeasured("CC(C)C1=CC23CCC4C(C)(C(=O)O)CCCC4(C)C2CC1C1C(=O)N(c2ccccc2)C(=O)C13 (stereo not drawn)")
-3.9
>>> valuemeasured("Nc1ccc(C(=O)NN2C(=O)C(Cl)C2c2cc(Br)ccc2O)cc1 (stereo not drawn)")
11.6
>>> valuemeasured("Cc1cc(=O)c2cc(N=Cc3ccc(N(C)C)cc3)ccc2o1")
-10.9
>>> valuemeasured("Cc1ccc(S(=O)(=O)NN=C2CCS(=O)CC2)cc1 (stereo not drawn)")
10.7
>>> valuemeasured("CCOC(=O)Cc1[nH]c(C(=O)OCC)c(CC(=O)OCC)c1C(=O)OCC")
8.45

---

The reader will find reported growth inhibition values listed item by item below.
- experimentDescription: NCI Yeast Anticancer Drug Screen. Data for the cln2 rad14 strain (AID 165);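 further: 0% = growth equal to vehicle treated cultures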
- recordedConditions: S. cerevisiae cln2 rad14 strain, at 50.0 µM, hits give high values
About 79,000 compounds went through this panel and 15% of them were active in at least one assay; those are over-represented in the sample as a whole.
readoutType: growth inhibition (%)

>>> valuemeasured("Cc1ccc(S(=O)(=O)Oc2ccccc2OS(=O)(=O)c2ccc(C)cc2)cc1")
-4.1
>>> valuemeasured("COc1ccc(CCN2CCc3c(C)c(C#N)c4nc5ccccc5n4c32)cc1OC")
12.1
>>> valuemeasured("Nc1nc(SCC(=O)O)nc2nc[nH]c12")
-32
>>> valuemeasured("Cc1cccc(CC(CC(=O)O)C(=O)O)c1 (configuration not stated)")
11.6
>>> valuemeasured("CC(=O)OC(C)(C)c1ccc2c(c1)C(=O)C[C@@H]1[C@](C)(C#N)CCC[C@]21C")
-5.35
>>> valuemeasured("C=CCc1ccc(OC(=O)Nc2ccc(S(=O)(=O)N(C)C)cc2)c(OC)c1")
14.6
>>> valuemeasured("CC(=O)NC(c1ccccc1)c1c(O)ccc2ccccc12 (configuration not stated)")
-33.2
>>> valuemeasured("O=C(O)CCBr")
0
>>> valuemeasured("COc1cc(OC)c2nc(C)c3c(c2c1)SCC3")
7.4
>>> valuemeasured("O=C(/C=C(\\O)c1ccc(Cl)cc1)C(=O)NN=C(c1ccccc1)c1ccccc1")
7.2
>>> valuemeasured("CN(C)CCC(=O)N1CCc2c([nH]c3ccccc23)C1c1cccnc1 (configuration not stated)")
6.55
>>> valuemeasured("COC(=O)c1ccccc1CC1Cc2cc3c(cc2C1)CCC3")
12.9

---

- experimentDescription: NCI Yeast Anticancer Drug Screen. Data for the mlh1 rad18 strain (AID 175)
- recordedConditions: S. cerevisiae mlh1 rad18 strain growth inhibition; at 50.0 µM; hits give high values
About 79,000 compounds went through this panel and 15% of them were active in at least one assay; those are over-represented in the sample as a whole. Where a SMILES comes first, the peptide text is derived from it. [ ]: non-standard residue; d: D form. The star is where a group is joined. ξ: configuration not given here. ξAsp(βξ-Me) = CC(C(=O)O)C(N)C(=O)O; X11 = CC(N*)C1NC(=O)C2CCCCN2C1=O; ξAbu(3ξ-NH2) = CC(N)C(N)C(=O)O; X10 = CCC(C)CCC/C=C/CC(=O)*
The reader will find reported growth inhibition values listed item by item below.
readoutType: growth inhibition (%)

>>> valuemeasured("CC12C(=O)OC3CCC1CC32 (stereo not drawn)")
2.95
>>> valuemeasured("CCC(C)CCC/C=C/CC(=O)NC(CC(=O)O)C(=O)NC(C(=O)NC(CC(=O)O)C(=O)NCC(=O)NC(CC(=O)O)C(=O)NCC(=O)NC(C(=O)NC(C(=O)N1CCCC1C(=O)NC(C)C1NC(=O)C2CCCCN2C1=O)C(C)C)C(C)N)C(C)C(=O)O (stereo not drawn) (X10-D[ξAsp(βξ-Me)]DGDG[ξAbu(3ξ-NH2)]VP-X11; configuration not given here)")
-25.9
>>> valuemeasured("CC(=O)C(N)=NCc1ccccc1")
10.8
>>> valuemeasured("Cc1ccc(S(=O)(=O)C2(NC(=O)C3CC3)CC2)cc1")
-5.7
>>> valuemeasured("CCCCN(CCCC)CC(O)c1cc(-c2cc(C(O)CN(CCCC)CCCC)c3ccccc3n2)nc2ccccc12 (stereo not drawn)")
32.4
>>> valuemeasured("CC(C)(C)OC(=O)N/N=C\\c1ccnc2ccccc12")
-1.95
>>> valuemeasured("CC(C)(C)OC(=O)N(CCCCN(CCCNC(=O)C(F)(F)F)C(=O)OC(C)(C)C)CCCNC(=O)C(F)(F)F")
-32
>>> valuemeasured("CC(Br)CCl (stereo not drawn)")
39.2

---

The reader will find reported growth inhibition values listed item by item below.
- experimentDescription: NCI Yeast Anticancer Drug Screen. Data for the rad50 strain (AID 155);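 further: 0% = growth of vehicle-only cultures of the same strain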
- recordedConditions: S. cerevisiae rad50 strain growth inhibition; at 50.0 µM; hits give high values
Compounds without any hit were thinned out: in the full panel of roughly 79,000, 15% have a hit.
readoutType: growth inhibition (%)

>>> valuemeasured("CCN(CC)C(=O)c1ccccc1")
7.75
>>> valuemeasured("Cc1ncc([N+](=O)[O-])n1Cc1nncs1")
-9.35
>>> valuemeasured("O=C1Cc2ccccc2NC(c2ccccc2)C1S(=O)(=O)c1ccccc1 (stereo unspecified)")
7.05
>>> valuemeasured("O=C(NNC(=O)C(Oc1ccccc1)c1ccccc1)C(Cl)Cl (stereo unspecified)")
-9.5
>>> valuemeasured("O=C(/C=C/c1ccccc1)N(Cc1ccccc1)c1ccccc1")
94.3
>>> valuemeasured("O=C1/C(=C/c2cccc3ccccc23)Cc2ccccc21")
-6.55
>>> valuemeasured("Cn1cc([N+](=O)[O-])cc1C(=O)Nc1cc(C(=O)Nc2ccc(S(=O)(=O)O)c3cc(S(=O)(=O)O)ccc23)n(C)c1")
2.4
>>> valuemeasured("COc1ccc(C(=O)C[n+]2cc(Br)cc3ccccc32)cc1")
-3.1
>>> valuemeasured("O=C(Cn1cc(I)c(C(=O)NCC(O)CO)n1)NCC(O)CO (stereo unspecified)")
-2.2
>>> valuemeasured("CC1(C)CC(c2c[nH]c3ccccc23)=CC2=Nc3ccccc3C21O (stereo unspecified)")
-41.9
>>> valuemeasured("CC(=O)OC1CC2CC1C1CC=CC21 (stereo unspecified)")
35.2

---

The reader will find reported growth inhibition values listed item by item below.
- experimentDescription: NCI Yeast Anticancer Drug Screen. Data for the mec2-1 strain (AID 157)
- recordedConditions: S. cerevisiae mec2-1 strain, at 50.0 µM, hits give high values
The panel holds about 79,000 compounds, 15% with a hit somewhere; the sample as a whole holds those more often.
readoutType: growth inhibition (%)

>>> valuemeasured("CSC1=C(c2ccc(Cl)cc2)SC(N2CCCCC2)N1c1ccc([N+](=O)[O-])cc1 (centres undefined)")
-0.05
>>> valuemeasured("COC1OC(COC(c2ccccc2)(c2ccccc2)c2ccccc2)C(OS(=O)(=O)c2ccc(C)cc2)C(OC(=O)c2ccccc2)C1OC(=O)c1ccccc1 (centres undefined)")
-6.7
>>> valuemeasured("O=C(Nc1nc(C23CC4CC(CC(C4)C2)C3)cs1)c1cc2ccccc2oc1=O")
-26.5
>>> valuemeasured("CC1C=C(Br)C(=O)C(n2cnc3c(=O)n(C)c(=O)n(C)c32)O1 (centres undefined)")
13.5
>>> valuemeasured("NC(=O)c1ccc(NCC2=CC(=O)C=CC2=O)cc1")
3.25
>>> valuemeasured("O=C(COc1cccc(Cl)c1)Nc1ccc(C(=O)CCl)cc1")
49.5
>>> valuemeasured("Cc1ccc(S(=O)(=O)OCC2(COS(=O)(=O)c3ccc(C)cc3)CCC2)cc1")
-7.75
>>> valuemeasured("CCOc1ccc(Nc2nc(C(Cl)(Cl)Cl)cc(C(Cl)(Cl)Cl)n2)cc1CN(CC)CC")
99.1
>>> valuemeasured("O=C(NCC(CC(NC(=O)c1ccccc1)C(=O)O)NC(=O)c1ccccc1)c1ccccc1 (centres undefined)")
-4.85
